Assignment: determine reported collision cross section for the given sequences.
test.details: collision cross section of modified peptide (TIMS, N2, iRT-aligned); higher = larger / more extended gas-phase ion
condition.label: charge state: 3; modification: Dimethyl (K)
One number for each entry, in Å².

AAQASDLEKIHLDEK [_AAQASDLEK(Dimethyl (K))IHLDEK_]	503.12
GAEKTEVAEPR [_GAEK(Dimethyl (K))TEVAEPR_]	439.06

Shifting focus to the sequence that follows.
Q. Reported collision cross section for FDDTNPEKEEAK [_FDDTNPEK(Dimethyl (K))EEAK_] : what is it?
A. 487.33

###

test.details: collision cross section of modified peptide (TIMS, N2, iRT-aligned); higher = larger / more extended gas-phase ion
condition.label: charge state: 3; modification: Malonyl
Give measured collision cross section for each item. Keep answers brief.
Give bare numbers, in Å².

Worked examples, 3 sequences total:
IHVQSSSDSSDEPAEKR [_IHVQSSSDSSDEPAEK(Malonyl)R_]	506.71
GSLGAQKLANTCFNEIEK [_GSLGAQK(Malonyl)LANTCFNEIEK_]	511.38
DAIHFYNKSLAEHR [_DAIHFYNK(Malonyl)SLAEHR_]	505.96

Then this sequence:
Q. So what's the measured collision cross section for this one? DDSFLGKLGGTLAR [_DDSFLGK(Malonyl)LGGTLAR_]
A. 489.57

###

test.details: collision cross section of unmodified peptide (TIMS, N2, iRT-aligned); higher = larger / more extended gas-phase ion
condition.label: charge state: 2
Could you please report measured collision cross section for the items listed next?
Answers are plain numbers, in Å².

Consider the reported collision cross section for these sequences:
LAEQEAHYAVR	394.57
DESFLGKLGGTLAR	409.59
SGGYGGSRDYYSSR	399.15
DYQPGITFIVVQK	401.42

Q. Form field: reported collision cross section of SKHLQEQLNELK
A. 411.35

###

test.details: collision cross section of modified peptide (TIMS, N2, iRT-aligned); higher = larger / more extended gas-phase ion
condition.label: charge state: 3; modification: Butyryl
Give collision cross section for every item shown.
One number for each entry, in Å².

SSFAYKDQNENR [_SSFAYK(Butyryl)DQNENR_]	462.59
TFGKAAGPSLSHTSGGTQSK [_TFGK(Butyryl)AAGPSLSHTSGGTQSK_]	514.77
AGQKLIDVNHYAK [_AGQK(Butyryl)LIDVNHYAK_]	485.15
SGNLTEDDKHNNAK [_SGNLTEDDK(Butyryl)HNNAK_]	472.83
INNFSADIKDSK [_INNFSADIK(Butyryl)DSK_]	461.68

Need collision cross section for each of these sequences.
1. GADFLVTEVENGGSLGSKK [_GADFLVTEVENGGSLGSK(Butyryl)K_]
2. TEVLSPNSKVESK [_TEVLSPNSK(Butyryl)VESK_]
3. SPSDSGYSYETIGKTTK [_SPSDSGYSYETIGK(Butyryl)TTK_]

A.
1: 551.35; 2: 463.23; 3: 527.5

Report collision cross section for each item below.
1. AAQASDLEKIHLDEK [_AAQASDLEK(Butyryl)IHLDEK_]
2. FSAYIKNSNPALNDNLEK [_FSAYIK(Butyryl)NSNPALNDNLEK_]
3. GGPGSTLSFVGKR [_GGPGSTLSFVGK(Butyryl)R_]
4. DASTLQSQKAEGTGDAK [_DASTLQSQK(Butyryl)AEGTGDAK_]
5. LQEKVESAQSEQK [_LQEK(Butyryl)VESAQSEQK_]
6. IHNAENIQPGEQKYEYK [_IHNAENIQPGEQK(Butyryl)YEYK_]
7. GETASKLQSEISR [_GETASK(Butyryl)LQSEISR_]
8. VSPASSVDSNIPSSQGYKK [_VSPASSVDSNIPSSQGYK(Butyryl)K_]

A.
1. 499.42
2. 548.32
3. 432.12
4. 511.91
5. 504.21
6. 530.34
7. 467.14
8. 559.88

Here are 6 sequences. What values of collision cross section were reported for them?
1. VGIDTPDIDIHGPEGKLK [_VGIDTPDIDIHGPEGK(Butyryl)LK_]
2. GEVGAGAGPGAQAGPSAKR [_GEVGAGAGPGAQAGPSAK(Butyryl)R_]
3. TLDEILQEKK [_TLDEILQEK(Butyryl)K_]
4. LQDVSGQLSSSKK [_LQDVSGQLSSSK(Butyryl)K_]
5. IQQELQTAKK [_IQQELQTAK(Butyryl)K_]
6. PASGAGAGAGAGKR [_PASGAGAGAGAGK(Butyryl)R_]

A.
542.04
483.04
449.71
476.47
441.3
461.52

The reported measurements were obtained from the supplement of paper PMC10598134.
